Value source: patent US20260315499A1

Assay: Cell viability assay in differentiated neuronal cells (MTT), N2A
Assay type: cell-based
Conditions: mouse, read-out: % Cell viability ± SD, N2A
Listed compounds paired with reported viability at 48 h, 20 µM
I only need the number, in %, no unit after it.

Answered cases to consult:
C=C(C)[C@@H]1CCC(C)=C[C@H]1c1c(O)cc(CCCCC)c(CN2CCCCC2)c1O | 96.9
C=C(C)[C@@H]1CCC(C)=C[C@H]1c1c(O)cc(CCCCC)c(CN2CCN(CCO)CC2)c1O | 96
C=C(C)[C@@H]1CCC(C)=C[C@H]1c1c(O)cc(CCCCC)c(CN2CCN(C)CC2)c1O | 93.3
C=C(C)[C@@H]1CCC(C)=C[C@H]1c1c(O)cc(CCCCC)c(CN2CCN(c3ccccc3)CC2)c1O | 96.2
C=C(C)[C@@H]1CCC(C)=C[C@H]1c1c(O)cc(CCCCC)c(CN2CCC(C(C)C)CC2)c1O | 99.7

Sample "C=C(C)[C@@H]1CCC(C)=C[C@H]1c1c(O)c(CN2CCOCC2)c(CCCCC)c(CN2CCOCC2)c1O" ; viability at 48 h, 20 µM observed: 94.7

Summary for this compound, "C=C(C)[C@@H]1CCC(C)=C[C@H]1c1c(O)cc(CCCCC)c(CNc2cnccn2)c1O" : viability at 48 h, 20 µM is 89.8

// viability at 48 h, 20 µM lookup, compound = "C=C(C)[C@@H]1CCC(C)=C[C@H]1c1c(O)cc(CCCCC)c(CN2CCC(C(F)(F)F)CC2)c1O" , result: 25.3
